Reference source: patent US5861405A

biological target: A1 receptors, rat striatum (Rattus norvegicus); construct: Striatal tissue was isolated by dissection of rabbit, bovine, and rat brain; tissue Pel-Freeze Biologicals Co; host or cells: rat striatal membranes (frozen brain); assay: Competition binding vs [3H]PIA, rat striatal membranes; conditions: Ki value at A1-receptors, rat striatum
Sequence (P25099 whole entry): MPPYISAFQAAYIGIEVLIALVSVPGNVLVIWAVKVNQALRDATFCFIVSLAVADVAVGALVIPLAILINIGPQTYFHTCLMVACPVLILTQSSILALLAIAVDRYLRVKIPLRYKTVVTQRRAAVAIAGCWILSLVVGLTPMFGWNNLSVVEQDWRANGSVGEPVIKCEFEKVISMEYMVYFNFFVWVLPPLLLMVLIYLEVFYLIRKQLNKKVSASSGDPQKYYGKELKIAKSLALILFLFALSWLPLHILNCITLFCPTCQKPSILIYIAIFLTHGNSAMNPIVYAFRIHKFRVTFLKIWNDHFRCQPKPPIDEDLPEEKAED
property-name: Ki (µM)
Report as a plain number; the unit µM is understood.

Lookup: Give the reported Ki for this molecule. Cn1c(=O)c2c(nc(/C=C/c3cccc(N=C=S)c3)n2C)n(C)c1=O [Compound 28e]
Found: 20

---

molecular target: rat A1 cortical receptors (Rattus norvegicus); construct: Rat cerebral cortical membranes and striatal membranes were prepared; from tissue; host or cells: rat cerebral cortex membranes; experiment: Radioligand binding, [3H]N6-phenylisopropyladenosine ([3H]PIA), rat cortical A1 receptors; conditions: Table I; vs [3H]PIA (1 nM), rat A1 receptors; read-out: Ki (A1)
Sequence (P25099 whole entry): as above
Define the label as Criterion met when Ki is strictly less than 4 µM and as Criterion not met in all remaining cases.

Lookup: Consider the compound COc1ccc(/C=C/c2nc3c([nH]2)c(=O)n(C)c(=O)n3C)cc1 [Compound 29a, 1,3-Dimethyl-8-(4-methoxystyryl)xanthine] . Is its Ki strictly less than 4 µM?
Found: Criterion met

---
Lookup: Quick check: Ki of COc1ccccc1/C=C/c1nc2c([nH]1)c(=O)n(C)c(=O)n2C [Compound 17a, 1,3-Dimethyl-8-(2-methoxystyryl)xanthine] under 4 µM?
Found: Criterion met

Lookup: Given COc1cc(/C=C/c2nc3c(c(=O)n(C)c(=O)n3C)n2C)cc(OC)c1OC [Compound 44b] , is recorded Ki strictly lower than 4 µM?
Found: Criterion not met

Lookup: Strictly below 4 µM in Ki? `CC(=O)Nc1cccc(/C=C/c2nc3c(c(=O)n(C)c(=O)n3C)n2C)c1`
Found: Criterion not met

Lookup: Answer whether the compound `COc1cc(/C=C/c2nc3c(c(=O)n(C)c(=O)n3C)n2C)cc(OC)c1O` has Ki strictly less than 4 µM
Found: Criterion not met

Lookup: Lab note: confirm whether the reported Ki for this compound is below 4 µM, equality not counting. compound: Cn1c(=O)c2c(nc(/C=C/c3cccc([N+](=O)[O-])c3)n2C)n(C)c1=O [Compound 21b]
Found: Criterion met

Lookup: Problem: For the compound CCCn1c(=O)c2[nH]c(/C=C/c3cc(OC)cc(OC)c3)nc2n(CCC)c1=O [Compound 53a] , is Ki under 4 µM?
Found: Criterion met
